target: human mature TGFβ3 (Homo sapiens, UniProt P10600); test: cell-based or functional assay
Sequence (P10600 301-412): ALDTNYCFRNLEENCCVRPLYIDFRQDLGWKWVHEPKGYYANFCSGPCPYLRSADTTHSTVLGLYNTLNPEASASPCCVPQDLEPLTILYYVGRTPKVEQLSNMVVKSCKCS
// reported TGFβ inhibition by HEK-Blue cells (IC50: nM), TGFb3; Blocking: Complete for each item listed
Give your result in nM as a bare value.

Reference set, count: 2
- h4A11.v2.3 (antibody, V domains shown, as the VH of m7 (h4A11.v2) with the stated change; numbers count on: Kabat numbering of the heavy chain; as the VL of m7 (h4A11.v2); human IgG1; also called v2.3_Q81A; source: Expi293F, transient, purified (Protein A, SEC)) VH: EQQLVESGGGLVQPGGSLRLSCAVSGFSLSSYTVNWVRQAPGKGLEWIGYISYGGSAYYASWANGRFTISKDSAKNSVYLAMNSLRAEDTAVYFCARHMQVGGAPTGSMAAFDPWGPGTLVTVSS VL: DAQLTQSPSSLSASVGDRVTITCQSSQSVYNNNYLSWFQQKPGKPPKLLIYGASTLTSGVPSRFSGSGSGTDFTLTISSLQPEDFATYYCAGGYSGSSDKYAFGGGTKVEIK: 0.7
- h4A11.v2.1 (antibody, V domains shown, as the VH of m7 (h4A11.v2) with the stated change; numbers count on: Kabat numbering of the heavy chain; as the VL of m7 (h4A11.v2); human IgG1; also called v2.1_R19S; source: Expi293F, transient, purified (Protein A, SEC)) VH: EQQLVESGGGLVQPGGSLSLSCAVSGFSLSSYTVNWVRQAPGKGLEWIGYISYGGSAYYASWANGRFTISKDSAKNSVYLQMNSLRAEDTAVYFCARHMQVGGAPTGSMAAFDPWGPGTLVTVSS VL: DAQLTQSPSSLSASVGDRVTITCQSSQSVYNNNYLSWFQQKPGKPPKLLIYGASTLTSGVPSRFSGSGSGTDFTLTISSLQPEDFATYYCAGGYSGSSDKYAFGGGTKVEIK: 0.1

Now for another entry.
-- ask Look up TGFβ inhibition by HEK-Blue cells (IC50: nM), TGFb3; Blocking: Complete for this binder: h4A11.v2.4 (antibody, V domains shown, as the VH of m7 (h4A11.v2) with the stated changes; numbers count on: Kabat numbering of the heavy chain; as the VL of m7 (h4A11.v2); human IgG1; also called v2.4_ R19S, Y79S; source: Expi293F, transient, purified (Protein A, SEC)) VH: EQQLVESGGGLVQPGGSLSLSCAVSGFSLSSYTVNWVRQAPGKGLEWIGYISYGGSAYYASWANGRFTISKDSAKNSVSLQMNSLRAEDTAVYFCARHMQVGGAPTGSMAAFDPWGPGTLVTVSS VL: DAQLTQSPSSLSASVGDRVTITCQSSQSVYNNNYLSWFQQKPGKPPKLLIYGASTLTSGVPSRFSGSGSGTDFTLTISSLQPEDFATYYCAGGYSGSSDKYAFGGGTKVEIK
-- reply 0.2
